System: HepG2
ASSAY NOTES: GSK_TCMDC: Percent inhibition of human HepG2 cell line. Test compounds present at 10uM.
Assay type: functional
For each entry below, report its Inhibition value.
One number for each entry, in %.

1. O=C(O)C(F)(F)F.O=S(=O)(NCCN1CCCC1)c1ccc(-c2ccc(CNCc3ccsc3)cc2)cc1 ... 44
2. O=C(Nc1cccc(-c2cccc(-c3nc4ccccc4[nH]3)c2)c1)Nc1ccc(F)c(F)c1F ... 78
3. CCOc1cc(CC)ccc1C1CCN(CCCCNC(=O)c2ccc(NC(=O)c3ccc(C#N)cc3)cc2)CC1 ... 55
4. Cc1nc(-c2cccc(Nc3ccnc4cc(-c5nccs5)ccc34)c2)no1.Cl ... 37

List Inhibition for every entry below, keeping the order given.
1. O=C(/C=C/c1ccc(Cl)c(Cl)c1)NC1CCC(CN2CCC(c3nc4ccccc4n3CCCO)CC2)CC1 (stereo unspecified)
2. COc1ccc(CN2CCCC(C(=O)c3ccc(C(F)(F)F)cc3)C2)c(O)c1 (stereo unspecified)

Response:
28
0

---

Tested on: HepG2
ASSAY NOTES: GSK_TCMDC: Percent inhibition of human HepG2 cell line. Test compounds present at 10uM.
Format: functional
For each entry below, report its Inhibition value.
Put your answer as a value accompanied by its unit after it.

Worked cases, answers included:
1. COc1cc2c(c(OC)c1[N+](=O)[O-])C=CC1(O2)N(C)c2ccc([N+](=O)[O-])cc2C1(C)C (configuration not stated) ... 0%
2. CO/C(=C\C=C\c1cc2cc(Cl)c(Cl)cc2[nH]1)C(=O)NCCCN1CCN(c2ccc(OC)cc2)CC1 ... 40%
3. NS(=O)(=O)c1ccc(CNc2ccc3ncc(-c4ccc(OC(F)(F)F)cc4)n3n2)cc1 ... 10%

List Inhibition for every entry below, keeping the order given.
1. CN1CCN(c2ccnc3ccc(NC(=O)Nc4ccc(Cl)c(Cl)c4)cc23)CC1
2. Cc1cc(C2CCN(CCCCNC(=O)c3ccc(-c4ccc(C(F)(F)F)cc4)cc3)CC2)c(C)cc1OCCOC1CCCCO1 (configuration not stated)
3. Cc1cc(C(=O)Nc2ccc3c(c2)CCN3C2CCN(Cc3ccc(O)cc3)C2)no1 (configuration not stated)
4. NC1CCN(Cc2ccc(-c3ccc(-c4nc5cc(F)ccc5[nH]4)s3)cc2)C1.O=C(O)C(F)(F)F (configuration not stated)
5. Cc1noc(C)c1-c1cccc(CNCc2cccc(-c3ccc(-c4nc5cccc(C)c5[nH]4)cc3)c2)c1.O=C(O)C(F)(F)F
6. CC(CNC(=O)C(c1cc2ccccc2o1)N1CCN(C(c2ccccc2)c2ccccc2)CC1)c1ccccc1 (configuration not stated)
7. COc1ccc(N2C(N)=NC(N)=NC2(C)C)cc1.Cl

Response:
["0%", "30%", "3%", "32%", "24%", "2%", "0%"]

List Inhibition for every entry below, keeping the order given.
1. CCCCCCN1CCC(NCc2cccc(C#N)c2)CC1.O=C(O)C(F)(F)F
2. Cl.FC(F)(F)c1ccccc1OCc1cc(-c2ccncc2)c(COc2ccccc2C(F)(F)F)cc1C1=CCNCC1
3. O=C(Nc1ccc(-c2nc3ccccc3[nH]2)cc1)C1CCN(Cc2cccc(F)c2F)CC1
4. O=C(Nc1cccc(-c2nn3ccccc3c2-c2ccnc(Nc3cccc(F)c3)n2)c1)c1c(F)ccc(F)c1Cl
5. Cc1ccc(CN2CCN(c3cc4c(cc3Cl)CCN4C(=O)Cc3ccc(NC(=O)c4ccc(C(F)(F)F)cc4)cc3)CC2)cc1

Response:
1: 5%; 2: 31%; 3: 23%; 4: 41%; 5: 15%

List Inhibition for every entry below, keeping the order given.
1. O=C(Cc1ccccc1)NC1CCN(c2ccnc3cc(Cl)ccc23)C1.O=C(O)C(F)(F)F (configuration not stated)
2. COc1ccc(C(=O)N[C@@H](CC(C)C)C(=O)NC2CC[C@@H](C)N(C(=O)Nc3ccc(Cl)cc3)CC2=O)cc1OCCN1CCOCC1 (some centres not stated)

Response:
1. 6%
2. 5%

---

Test system: Plasmodium falciparum
ASSAY NOTES: GSK_TCMDC: Inhibition of Plasmodium falciparum 3D7 in whole red blood cells, using parasite LDH activity as an index of growth. Test compounds present at 2uM
Format: functional
ENDPOINT: Inhibition (%)
One number for each entry, in %.

1. COc1ccc(NC(=O)c2ccc(NC(=O)c3ccc(Cl)cc3)cc2)cc1N1CCN(C)CC1 ... 98
2. O=C(Nc1cccc(CN2CCCN(Cc3ccc(F)cc3)CC2)c1)c1ccc(Cl)c(Cl)c1.O=C(O)C(F)(F)F ... 95
3. O=C(NC1CC1)c1ccc(Cn2c(SCc3cccc([N+](=O)[O-])c3)nc3ccccc3c2=O)cc1 ... 91
4. Cc1cc(N[C@@H](CC(C)C)C(=O)NCCOc2ccccc2)nc(NCC2CCCCC2)n1.O=C(O)C(F)(F)F ... 97
5. Cc1cc(-c2nc3cc(C(=N)N)ccc3[nH]2)c(C)cc1-c1nc2cc(C(=N)N)ccc2[nH]1.Cl ... 96

List Inhibition for every entry below, keeping the order given.
1. COc1cc(CN2CCC(C(=O)Nc3ccc(-c4cccc(C)c4)cc3)CC2)ccc1O
2. CCCc1cc(=O)[nH]c(-n2nc(C)cc2NC(=O)c2cc3ccccc3o2)n1
3. CCCc1cc(OC)c(C[C@@H]2c3cc(O)c(Cl)cc3CCN2C)cc1OC.Cl

Response:
1. 100
2. 90
3. 98

---

For each entry below, report its Inhibition value.
System: HepG2
ASSAY NOTES: GSK_TCMDC: Percent inhibition of human HepG2 cell line. Test compounds present at 10uM.
Assay type: functional
Answers are plain numbers, in %.

Worked cases, answers included:
1) Cc1[nH]cc(Br)c(=O)c1-c1ccc(Oc2ccccc2)cc1 ... 0
2) COc1ccccc1Oc1c(N(C)S(=O)(=O)c2ccc(C(C)C)cc2)nc(C(F)(F)F)nc1N(C)S(=O)(=O)c1ccc(C(C)C)cc1 ... 4
3) COc1ccccc1N1CCN(c2cccc3c2nc(-c2cncc(C#N)c2)n3CCNCc2ccccc2)CC1.O=C(O)C(F)(F)F ... 0
4) COc1ccc(-c2ccnc(-c3cccc(-c4ccccn4)n3)c2)cc1 ... 44
5) CCC(CC)N1C(=O)C(c2ccccc2)(c2ccccc2)N=C1N.O=CO ... 14
6) Cc1nc(-c2nc(NCc3ccncc3)ncc2-c2ccsc2)sc1C ... 8
7) CN(C)Cc1cccc(-c2cnc(N)c(-c3nc4cc(S(C)(=O)=O)ccc4[nH]3)c2)c1.O=C(O)C(F)(F)F ... 27
8) CCCCCCC1(C)N=C(N)N=C(N)C1c1ccc(Cl)c(Cl)c1.Cl (centres undefined) ... 18

Next compound, Inhibition to be filled in.
Prompt: What value of Inhibition has been reported for the following compound? CN1CCC(Oc2ccc(CN3CC[C@H](NC(=O)c4ccc(Cl)c(Cl)c4)C3)c3ccccc23)C1.O=C(O)C(F)(F)F (some centres undefined)
Response: 52

---

Tested on: Plasmodium falciparum
ASSAY NOTES: GSK_TCMDC: Inhibition of Plasmodium falciparum 3D7 in whole red blood cells, using parasite LDH activity as an index of growth. Test compounds present at 2uM
Format: functional
For each entry below, report its Inhibition value.
One number for each entry, in %.

Worked cases, answers included:
1. CCN(CC)CCN(Cc1ccc(-c2ccc(C(F)(F)F)cc2)cc1)C(=O)Cn1c(CCc2cccc(F)c2F)nc(=O)c2cc(F)c(F)cc21.O=C(O)C(O)C(O)C(=O)O ... 100
2. COc1ccc2[nH]ccc(=NN=Cc3ccccc3Cl)c2c1 ... 100

List Inhibition for every entry below, keeping the order given.
1. CCC1CN(S(=O)(=O)c2ccc3c(c2)NC(=O)CC(=O)N3)c2cc(Cl)ccc2O1 (centres undefined)
2. Cc1onc(-c2ccccc2)c1-c1nc(NCCC(c2ccccc2)c2ccccc2)no1

Response:
99
100

---

For each entry below, report its Inhibition value.
System: Plasmodium falciparum
ASSAY NOTES: GSK_TCMDC: Inhibition of Plasmodium falciparum Dd2 in whole red blood cells, using parasite LDH activity as an index of growth. Test compounds present at 2uM
Assay type: functional
Put your answer as a value accompanied by its unit after it.

1) Cc1cccn2c(=O)c3cc(C(=O)NC4CCCCC4)c(=N)n(CCCn4ccnc4)c3nc12 ... 8%
2) CCNc1cc(C(=O)N[C@@H](Cc2ccccc2)[C@H](O)CNC(CC)c2cccc(Cl)c2)cc(N2CCCCS2(=O)=O)c1.Cl (stereo partly drawn) ... 98%
3) CCOC(=O)N1CCN(CCCNc2c3ccc(Cl)cc3nc3ccc(OC)cc23)CC1 ... 100%
4) CC[C@H](C)CNC(=O)c1ccc(-c2cccc(CN3CCC(N4CCCC4)CC3)c2)nc1.O=C(O)C(F)(F)F ... 7%
5) COc1ccc(CCNC(=O)c2cc(C)ccc2O)cc1-c1ccc(C(C)(C)C)cc1 ... 94%

List Inhibition for every entry below, keeping the order given.
1. O=C(O)C(F)(F)F.c1ccc(CNCc2cccc(-c3ccc(-c4nc5ccccc5[nH]4)cc3)c2)cc1
2. O=C(Nc1ccc(C(F)(F)F)cc1)N[C@H]1CCN(CCCCCNC(=O)C2CC2c2ccc(Cl)c(Cl)c2)C1 (stereo partly drawn)
3. C#C[C@H]1O[C@@H](n2cnc3c(Nc4cc(Br)cc(C(F)(F)F)c4)ncnc32)[C@H](O)[C@@H]1O
4. COc1ccc(C2CC(c3ccccc3O)=NN2C(=O)c2ccco2)cc1OC (stereo not drawn)
5. CC(C)[C@@H](NC(=O)NC1CCC(CCN2C3CCC2CC(OC(=O)C(CO)c2ccccc2)C3)CC1)C(O)(c1ccccc1)c1ccccc1 (stereo partly drawn)

Response:
1: 39%; 2: 0%; 3: 56%; 4: 68%; 5: 56%

List Inhibition for every entry below, keeping the order given.
1. CCN(CC)CCCN1CCN(C(=O)c2cccc(-c3noc(C(F)(F)F)n3)c2)CC1
2. CCCCCCN1CCCN(Cc2ccc(C(=O)Nc3ccc(Cl)cc3)cc2)CC1.O=C(O)C(F)(F)F
3. O=C(Cc1cccc(O)c1)NCC(Cc1ccc(O)cc1)c1ccccc1 (stereo not drawn)
4. CN(C)CC(O)COc1ccc(Nc2ncc([N+](=O)[O-])c(Nc3ccccc3O)n2)cc1.O=C(O)C(F)(F)F (stereo not drawn)
5. Cc1cc(N[C@@H](CC(C)C)C(=O)NCCOc2ccccc2)nc(Nc2ccccc2)n1.O=C(O)C(F)(F)F
6. Cc1csc2nc(-c3ccccn3)nc(Nc3ccc4ncsc4c3)c12.Cl
7. Cl.N#Cc1ccc2c(c1)CCN(CCC1CCC(NC(=O)/C=C/c3ccc4[nH]ccc4c3)CC1)CC2 (stereo not drawn)

Response:
74%
54%
97%
20%
9%
91%
27%

Prompt: What value of Inhibition has been reported for the following compound? `Cc1ccc(O)cc1Nc1ccnc2cc(-c3cccc(CNCCS(C)(=O)=O)c3)ccc12`
Response: 100%
